Can you tell me pEC50 for the items I'm about to list?
# MEASUREMENT TARGET: human EGFRvIII protein on the cell surface (human) (UniProt P00533)
# PROTOCOL NOTES: FACS on U87MG-EGFRvIII cells
Give bare numbers, as −log10 of the molar value.

Worked cases, pEC50 given:
Humanized antibody h75G7C6-4 (antibody, human IgG1, V domains shown) VH: EVQLVQSGAEVKKPGASVKVSCKASGYTFTDYNMDWVKQAPGQGLEWIGDINPNNADTIYNQKFKGRVTLTVDKSTSTVYMELSSLRSEDTAVYYCARGDYDGYYPVYYAMDYWGQGTTVTVSS VL: ENVLTQSPATLSLSPGERATLSCRASSSVSSSYLHWYQQKPGQSPRLLIFSTSNLAAGVPARFSGSGSGTDYTLTISSLEPEDFAVYYCQQYSGYPLTFGGGTKVEIK    8.25
Humanized antibody h75G7C6-2 (antibody, human IgG1, V domains shown) VH: EVQLVQSGAEVKKPGASVKVSCKASGYTFTDYNMDWVKQAPGQGLEWIGDINPNNADTIYNQKFKGRVTLTVDKSTSTVYMELSSLRSEDTAVYYCARGDYDGYYPVYYAMDYWGQGTTVTVSS VL: ENVLTQSPATLSLSPGERATLSCRASSSVSSSYLHWYQQKPGQAPRLLIFSTSNLAAGIPARFSGSGSGTDYTLTISSLEPEDFAVYYCQQYSGYPLTFGGGTKVEIK    8.25
Humanized antibody h75G7C6-7 (antibody, human IgG1, V domains shown) VH: QVQLVQSGAEVKKPGASVKVSCKASGYTFTDYNMDWVRQAPGQGLEWMGDINPNNADTIYNQKFKGRVTMTRDTSTSTVYMELSSLRSEDTAVYYCARGDYDGYYPVYYAMDYWGQGTTVTVSS VL: ENVLTQSPATLSLSPGERATLSCRASSSVSSSYLHWYQQKPGQSPRLLIFSTSNLAAGIPARFSGSGSGTDYTLTISSLEPEDFAVYYCQQYSGYPLTFGGGTKVEIK    8.24

Next, consider the following binder.
Request: May I ask what pEC50 has been recorded for Humanized antibody h75G7C6-8 (antibody, human IgG1, V domains shown) VH: QVQLVQSGAEVKKPGASVKVSCKASGYTFTDYNMDWVRQAPGQGLEWMGDINPNNADTIYNQKFKGRVTMTRDTSTSTVYMELSSLRSEDTAVYYCARGDYDGYYPVYYAMDYWGQGTTVTVSS VL: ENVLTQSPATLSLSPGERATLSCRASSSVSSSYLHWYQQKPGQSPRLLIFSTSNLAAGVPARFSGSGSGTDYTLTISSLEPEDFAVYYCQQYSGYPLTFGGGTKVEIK ?
Response: 7.93
